# SYSTEM: T1, extracellular domain (ECD) of human epidermal growth factor receptor 2 (HER2) (Homo sapiens, UniProt P04626)
# T1 construct: human epidermal growth factor receptor 2 (HER2), extracellular domain; also called HER2/ECD
# PROTOCOL: SPR; BIAcore T200; HER2/ECD immobilised on a CM5 chip by amine coupling to 1000 RU; IgG flowed in PBST (0.05% Tween 20) at 30 uL/min; regeneration 10 mM glycine pH 1.5; global fit to a 1:1 binding model
# RUN_PARAMETERS: both partners purified
PROPERTY: kon
Answer as a quantity: numeral, then unit.

{"columns": ["BINDER", "kon"],
 "data": [
  ["M61 IgG (mouse anti-HER2/ECD) (antibody, V domains shown, mouse VL; L49~L53 YNAKT; L91~L96 HYGTPY; mouse VH; H50~H58 NFHPYNDDTK; H96~H100B NDGYYGA; recombinant IgG from a scFv of an immunized mouse's phage library; source: HEK293-F, transient transfection, purified (Protein A, Superdex 200)) VH: EVQLQQSGAELVKPGASVKMSCKAFGYTFTTYPIEWMKQNHGKSLEWIGNFHPYNDDTKYNEKFKGKAKLTVEKSSSTVYLELSRLTSDDSAVYYCARRNDGYYGAMDYWGQGTSVTVSS VL: DIKITQSPASLSASVGETVTITCRASENIYSYLAWYQQKQGKSPQLLVYNAKTLAEGVPSRFSGSGSGTQFSLKINSLQPEDFGSYYCQHHYGTPYTFGGGTKLELK", "4.06e+06 M⁻¹ s⁻¹"]
]}

Next binder, kon to be filled in.
Request: Value lookup for kon; key = M64 IgG (mouse anti-HER2/ECD) (antibody, V domains shown, mouse VL; L49~L53 YWAST; L91~L96 HYSTPY; mouse VH; H50~H58 RIDPANGNTK; H96~H100B YRGAM; recombinant IgG from a scFv of an immunized mouse's phage library; source: HEK293-F, transient transfection, purified (Protein A, Superdex 200)) VH: EVQLQQSGAELVKPGASVKLSCTASGFNIKNTYMHWVKQRPEQGLEWIGRIDPANGNTKYDPKLQGKATITADTSSNTAYLHLSSLTSEDTAVYYCVPYYRGAMDYWGQGTSVTVSS VL: DIQMNQSHKFMSTSVGDRVSITCKASQDVSTAVAWYQQKPGQSPKLLIYWASTRHTGVPGRFTGSGSGADYTLTISSVQAEDLALYYCQQHYSTPYTFGGGTKLEIK
Result: 1.74e+06 M⁻¹ s⁻¹
